# experimental-protocol: PSAC antagonists in infected red cells, primary screen, cell-based, P. falciparum Indochina, OD700, 18 h (AID 1157)
# condition-info: P. falciparum Indochina infected erythrocytes, osmotic lysis OD700, 18 h; higher = more signal, called active from +8 up or from −8 down
Everything with z-score lower than 0.2 is not satisfied; everything else, including exactly 0.2, is satisfied.

>>> class("O=c1n(Cc2cc3c(cc2Cl)OCO3)c(=O)n2n1CC[C@@H]1C(=NOC[C@@H](O)COCc3ccco3)[C@H]3O[C@H]3[C@@H](O)[C@@H]12")
"not satisfied"
>>> class("COC(=O)[C@@H]1CC[C@H](C)[C@@H](c2ccc(C)cc2)N1C(=O)c1ccc(C=NOCC[C@@H]2C=C[C@H](OC(C)=O)[C@@H](COC(C)=O)O2)cc1")
"satisfied"
>>> class("CO[C@H]1COC(=O)CC=C[C@H](C)COC(=O)[C@@H](C)NC(=O)CC=C[C@@H]1C")
"not satisfied"
>>> class("Cc1ccc(S(=O)(=O)N[C@@H]2COC(=O)[C@@H](C)COC(=O)CC=C[C@H]2C)cc1")
"not satisfied"
>>> class("COC(=O)CC=C[C@@H](C)[C@@H](C=NO[C@@H](C)c1cn([C@H](CO)Cc2ccccc2)nn1)OC")
"not satisfied"
>>> class("COC(=O)[C@@H]1CC[C@H](C)[C@@H](c2ccc(C)cc2)N1C(=O)c1ccc(C=NO[C@H](C)c2cn([C@@H]3COC[C@H]3O)nn2)cc1")
"satisfied"
